The measured values listed here are drawn from patent US9783539B2.

# measurement protocol: Pharmacokinetic parameters in SD rats, IV and PO
# assay setup: Sprague-Dawley (SD), rat, in vivo, intravenous, read-out: Cmax IV
measurement kind: Cmax (ng/mL)

Returns the measured Cmax for the input molecule. Input: COc1cc2c(=O)c3c4ccc(C#N)cc4[nH]c3n(C(C)C)c2c(F)c1C1CCN(C)CC1
169

I have this molecule here, CCOc1cc2c(=O)c3c4ccc(C#N)cc4[nH]c3n(C(C)C)c2c(F)c1N1CCN(C)CC1 , and I need its recorded Cmax.
346

Quick one: Cmax of COc1cc2c(=O)c3c4ccc(C#N)cc4[nH]c3n(C(C)C)c2c(F)c1C1CCN(C(C)C)CC1 ?
212

(1) COc1cc2c(=O)c3c4ccc(C#N)cc4[nH]c3n(C(C)C)c2c(F)c1C1CCN(C2COC2)CC1
(2) COc1cc2c(=O)c3c4ccc(C#N)cc4[nH]c3n(C(C)C)c2c(F)c1C1CCN(C2CCOCC2)CC1
Consider 1 and 2 . Which of these has its Cmax at a higher number? Your choice should be expressed through its label.
1

---

# Tested on: Kappas-299 cells containing NPM-ALK fusion protein
# measurement protocol: 4-day cell viability assay (CellTiter-Glo), Kappas-299
# Type: cell-based
# assay setup: NPM-ALK, 96 h, inhibition of cell growth, 4 days, multiple values from independent experiments
In this section we review reported pIC50 values for a set of compounds.
Field pIC50 (float): negative decimal logarithm of the concentration in molar.

Returns the measured pIC50 for the input compound. Input: CCc1cc2c(=O)c3c4ccc(C#N)cc4[nH]c3n(C(C)C)c2cc1N1CCN(C2COC2)CC1
7.51

For CCc1cc2c(=O)c3c4ccc(C#N)cc4[nH]c3n(C(C)C)c2cc1N1CCNCC1 , what is its reported pIC50?
6.36

May I ask what pIC50 has been recorded for COc1cc2c(=O)c3c4ccc(C#N)cc4[nH]c3n(C(C)C)c2cc1N1CCC(N2CCOCC2)CC1 ?
6.86

Continuing:
Any idea what pIC50 was measured for CCOc1cc2c(=O)c3c4ccc(C#N)cc4[nH]c3n(C(C)C)c2c(F)c1N1CCN(C)CC1 ?
7.68

Recorded pIC50 for CCc1cc2c(=O)c3c4ccc(C#N)cc4[nH]c3n(C(C)C)c2cc1N1CCC(N2CCN(C)CC2)CC1 , please?
8.02

Need pIC50 of CCOc1cc2c(=O)c3c4ccc(C#N)cc4[nH]c3n(C(C)C)c2c(F)c1N1CCC(N2CCOCC2)CC1 , thanks.
7.46

Can you look up the measured pIC50 of C#Cc1cc2c(=O)c3c4ccc(C#N)cc4[nH]c3n(C3CCC3)c2cc1N1CCN(C)CC1 for me?
7.28

---

# measurement protocol: Pharmacokinetic parameters in SD rats, IV and PO
# Design: concentration or dose not given beside the values
# assay setup: Sprague-Dawley (SD), rat, in vivo, oral, read-out: AUC0-t PO
measurement kind: AUC(0-t) (ng·h/mL)

Given the entry COc1cc2c(=O)c3c4ccc(C#N)cc4[nH]c3n(C(C)C)c2c(F)c1C1CCN(C(C)C)CC1 [CJ-2225] , report its measured AUC(0-t).
2340

Which AUC(0-t) value belongs to COc1cc2c(=O)c3c4ccc(C#N)cc4[nH]c3n(C(C)C)c2c(F)c1C1CCN(C2COC2)CC1 [CJ-2224] ?
9640

Suppose we examine the compound COc1cc2c(=O)c3c4ccc(C#N)cc4[nH]c3n(C(C)C)c2c(F)c1C1CCN(C2CCOCC2)CC1 [CJ-2226] ; what AUC(0-t) value has been reported?
2370

(a) CC(C)Oc1cc2c(=O)c3c4ccc(C#N)cc4[nH]c3n(C(C)C)c2c(F)c1N1CCN(C)CC1 [ALK-86]
(b) CCOc1cc2c(=O)c3c4ccc(C#N)cc4[nH]c3n(C(C)C)c2c(F)c1N1CCN(C)CC1 [ALK-83]
Pick one: a or b . Which one has the lower reported AUC(0-t)? // output: label of the selected item
a
(a: 2440 ng·h/mL, b: 4430 ng·h/mL)

---

Measured IC50 accompanies every entry in the list below.
# System: Kappas-299 cells containing NPM-ALK fusion protein
# measurement protocol: 4-day cell viability assay (CellTiter-Glo), Kappas-299
# Format: cell-based
# assay setup: inhibition of cell growth, 4 days, multiple values from independent experiments
Enter your answer as a number in nM; do not include the unit.

Please review the following examples before continuing.
Value lookup for IC50; key = CCc1cc2c(=O)c3c4ccc(C#N)cc4[nH]c3n(C3CCC3)c2cc1N1CCN(C)CC1
62

Quick check: IC50 of CCc1cc2c(=O)c3c4ccc(C#N)cc4[nH]c3n(C3CCCC3)c2cc1N1CCN(C)CC1 ?
84

What value of measured IC50 is listed for C=C(C)c1cc2c(=O)c3c4ccc(C#N)cc4[nH]c3n(C(C)C)c2cc1N1CCN(C)CC1 ?
99

Give its IC50 value. Item: C=Cc1cc2c(=O)c3c4ccc(C#N)cc4[nH]c3n(C(C)C)c2cc1N1CCN(C)CC1
102

I'd like to know its IC50. The molecule in question is COc1cc2c(=O)c3c4ccc(C#N)cc4[nH]c3n(CC(C)(C)C)c2cc1N1CCN(C)CC1
261

// below: IC50 requested for another molecule
Entry under review: CCc1cc2c(=O)c3c4ccc(C#N)cc4[nH]c3n(CC)c2cc1N1CCN(C)CC1 . Reported IC50?
546

---

# measured target: wild-type human ALK protein (cytoplasmic domain, amino acid 1058-1620, GST-fusion) (Homo sapiens, UniProt Q9UM73)
# Sequence (Q9UM73 1058-1620): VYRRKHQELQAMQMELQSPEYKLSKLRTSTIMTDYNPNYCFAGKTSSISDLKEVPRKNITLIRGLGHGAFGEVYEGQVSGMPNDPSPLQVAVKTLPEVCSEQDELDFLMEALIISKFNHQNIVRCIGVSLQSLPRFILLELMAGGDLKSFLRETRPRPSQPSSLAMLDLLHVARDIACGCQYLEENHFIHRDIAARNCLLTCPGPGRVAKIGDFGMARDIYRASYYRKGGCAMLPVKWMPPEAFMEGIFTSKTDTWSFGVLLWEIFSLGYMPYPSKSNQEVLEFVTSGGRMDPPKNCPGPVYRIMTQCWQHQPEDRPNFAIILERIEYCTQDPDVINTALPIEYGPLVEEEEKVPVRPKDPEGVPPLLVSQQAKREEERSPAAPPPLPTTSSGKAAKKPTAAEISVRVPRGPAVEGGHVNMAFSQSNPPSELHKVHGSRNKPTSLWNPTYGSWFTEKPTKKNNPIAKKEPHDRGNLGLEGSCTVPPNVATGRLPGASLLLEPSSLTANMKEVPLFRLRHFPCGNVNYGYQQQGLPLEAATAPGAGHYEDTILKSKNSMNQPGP
# measurement protocol: biochemical
# assay setup: ALK IC50, wild-type ALK; 100 μM ATP
pIC50: −log10 of the molar value.
measurement kind: pIC50

Query: pIC50; subject: CC(C)n1c2cc(N3CCN(C)CC3)c(OC(F)F)cc2c(=O)c2c3ccc(C#N)cc3[nH]c21
8.80

Give the measured pIC50 of CCOc1cc2c(=O)c3c4ccc(C#N)cc4[nH]c3n(C3CCCC3)c2cc1N1CCN(C)CC1 .
7.61

(a) COc1cc2c(=O)c3c4ccc(C#N)cc4[nH]c3n(C3CCC3)c2c(F)c1N1CCC(N2CCOCC2)CC1
(b) CCc1cc2c(=O)c3c4ccc(C#N)cc4[nH]c3n(C(C)C)c2cc1N1CCOCC1
(c) C#Cc1cc2c(=O)c3c4ccc(C#N)cc4[nH]c3n(C(C)C)c2cc1N1CCN(C)CC1
List these items ordered by pIC50, big to small. Returns: the labels arranged in the requested order.
c, b, a

(P) CCOc1cc2c(=O)c3c4ccc(C#N)cc4[nH]c3n(C(C)C)c2c(F)c1N1CCN(C)CC1
(Q) C#Cc1cc2c(=O)c3c4ccc(C#N)cc4[nH]c3n(C3CCC3)c2cc1N1CCN(C)CC1
(R) C=C(C)c1cc2c(=O)c3c4ccc(C#N)cc4[nH]c3n(C(C)C)c2cc1N1CCN(C)CC1
(S) COc1cc2c(=O)c3c4ccc(C#N)cc4[nH]c3n(C)c2cc1N1CCN(C)CC1
(T) CCc1cc2c(=O)c3c4ccc(C#N)cc4[nH]c3n(C(C)C)c2cc1C1CCN(CCO)CC1
Endpoint returns the given compounds ordered by ascending pIC50. Thanks in advance for listing the labels in the requested order.
S, R, P, Q, T
(S: 6.51, R: 7.69, P: 8.70, Q: 9.17, T: 9.49)

---

# Tested on: Kappas-299 cells containing NPM-ALK fusion protein
# measurement protocol: 4-day cell viability assay (CellTiter-Glo), Kappas-299
# Format: cell-based
# assay setup: NPM-ALK, 96 h, inhibition of cell growth, 4 days, multiple values from independent experiments
pIC50 listing for selected compounds.
Bear in mind: pIC50 is minus log10 of a mol/L concentration; give just that figure.

A selection of reference data follows.
Which pIC50 reading was recorded for the compound CCc1cc2c(=O)c3c4ccc(C#N)cc4[nH]c3n(C(C)C)c2cc1C1CCN(C2CCOCC2)CC1 ?
7.46

Item under review: CC(C)n1c2cc(N3CCN(C)CC3)c(OC(F)F)cc2c(=O)c2c3ccc(C#N)cc3[nH]c21 . Reported pIC50?
6.35

Need pIC50, item CCc1cc2c(=O)c3c4ccc(C#N)cc4[nH]c3n(C(C)C)c2cc1C1CCNCC1
6.11

Would you kindly look at the next entry?
So what does the record say about pIC50 for CCc1cc2c(=O)c3c4ccc(C#N)cc4[nH]c3n(C(C)C)c2cc1N1CCC(N2CCOCC2)CC1 ?
7.60

---

# System: Kappas-299 cells containing NPM-ALK fusion protein
# measurement protocol: 4-day cell viability assay (CellTiter-Glo), Kappas-299
# Assay type: cell-based
# assay setup: NPM-ALK, 96 h, inhibition of cell growth, 4 days, multiple values from independent experiments
Known IC50 of a selection of compounds
Answer in nM, number only, no unit symbol.

# get_value(readout='IC50', item= COc1cc2c(=O)c3c4ccc(C#N)cc4[nH]c3n(C)c2cc1N1CCC(N2CCOCC2)CC1 )
90.3

Look up IC50: CCc1cc2c(=O)c3c4ccc(C#N)cc4[nH]c3n(C(C)C)c2cc1C1CCN(C2COC2)CC1
231

# input compound: CC(C)Oc1cc2c(=O)c3c4ccc(C#N)cc4[nH]c3n(C(C)C)c2c(F)c1N1CCC(N2CCOCC2)CC1 ; wanted: its IC50
66

Dear colleague, I am looking for the recorded IC50 of the following compound: CCc1cc2c(=O)c3c4ccc(C#N)cc4[nH]c3n(C(C)C)c2cc1C1CCN(C(C)C)CC1
16

# IC50 lookup, item COc1cc2c(=O)c3c4ccc(C#N)cc4[nH]c3n(CC(C)(C)C)c2cc1N1CCN(C)CC1
266

Others:
Return reported IC50; argument: CCc1cc2c(=O)c3c4ccc(C#N)cc4[nH]c3n(C(C)C)c2cc1N1CCN(C(C)C)CC1
7.6

Bench note: what IC50 did C=C(C)c1cc2c(=O)c3c4ccc(C#N)cc4[nH]c3n(C(C)C)c2cc1N1CCN(C)CC1 show?
70

# query: IC50 of entry CCc1cc2c(=O)c3c4ccc(C#N)cc4[nH]c3n(C(C)C)c2cc1N1CCOCC1
46
